Every entry's value here was drawn from patent US20210363269A1.

# TEST_SYSTEM: T1, human SIRP-α v1 D1 domain (human, UniProt P78324 31-149)
# T1 construct: also called human v1
# T1 sequence (P78324 31-149 limits assumed): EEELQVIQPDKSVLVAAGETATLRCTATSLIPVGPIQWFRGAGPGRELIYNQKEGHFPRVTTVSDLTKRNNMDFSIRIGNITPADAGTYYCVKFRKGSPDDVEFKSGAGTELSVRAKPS
# ASSAY_PROTOCOL: SPR, Langmuir fit
Provide the recorded koff for the entries that follow.
One number for each entry, in s⁻¹.

BINDER	koff (s⁻¹)
S56 (scFv, V domains shown, also called clone 56) VH: DVQLVESGGGVVRPGESLRLSCAASGFTFSSYAMSWVRQAPGKGLEWLAGISAGGSDTYYIDSVKGRFTISRDNSKNSLYLQVNSLTAEDTAVYYCARETWNHLFDYWGLGTLVTVSS VL: ALTQPASVSANPGETVKITCSGGGYYSTYYGWYQQKSPGSAPVTVIHSDDKRPSDIPSRFSGSASGSAATLTITGVRVEDEAVYYCAGYDGRTYINTFGAGTTLTVL	0.000228

Each binder below has a reported value. Please supply its koff.
1. S191 (scFv, V domains shown, also called clone 191) VH: DVQLVESGGGVVRPGESLRLSCAASGFSFSSYAMNWVRQAPGEGLEWVSRINSGGGGTDYAESVKGRFTISRDNSENTLYLQMNSLRAEDTAVYYCAKQYDWNGFFDYWGLGALVTVSS VL: ETVLTQSPATLSVSPGERATLSCRASQTVGSKLAWHQQKPGQAPRLLIYDATNRATGIPDRFSGSGSGTDFTLTISGLQTEDSAVYYCQQYYYWPPYRFGGGTKVEIK
2. S25 (scFv, V domains shown, also called clone 25; scFv-Fc form of AB25) VH: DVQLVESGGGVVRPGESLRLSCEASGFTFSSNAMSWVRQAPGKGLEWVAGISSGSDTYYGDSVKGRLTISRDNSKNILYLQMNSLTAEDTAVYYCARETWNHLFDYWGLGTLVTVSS VL: ALTQPASVSANPGETVEITCSGGSYSSYYYAWYQQKSPGSAPVTLIYSDDKRPSNIPSRFSGSASGSTATLTITGVRAEDEAVYFCGGYDQSSYTNPFGAGTTLTVL

Out:
1. 6.67e-05
2. 0.000112
